# assay-protocol: Equilibrium solubility measurement in organic solvents
# Type: physicochemical
# conditions: 25 °C, organic solvent or mixture, thermodynamic from solid, Acetone
measurement-kind: solubility at 72 h (mg/mL)
Give a bare numeral; the unit mg/mL is implied.

I have this compound here, CCC(CC)COC(=O)[C@H](C)N[P@](=O)(OC[C@H]1O[C@@](C#N)(c2ccc3c(N)ncnn23)[C@H](O)[C@@H]1O)Oc1ccccc1 , and I need its recorded solubility at 72 h. 66.4

----------
# assay-protocol: Equilibrium solubility measurement in organic solvents
# Format: physicochemical
# conditions: 25 °C, organic solvent or mixture, thermodynamic from solid, Acetonitrile
measurement-kind: solubility at 72 h (µg/mL)
Value expressed in µg/mL; do not type the unit.

Any idea what solubility at 72 h was measured for CCC(CC)COC(=O)[C@H](C)N[P@](=O)(OC[C@H]1O[C@@](C#N)(c2ccc3c(N)ncnn23)[C@H](O)[C@@H]1O)Oc1ccccc1 ? 5680

Data origin: patent US20240307427A1
